Cited source for all entries: ChEMBL document CHEMBL1140003

Biological target: 5-hydroxytryptamine receptor 7 (Rattus norvegicus)
Sequence (P32305 whole entry): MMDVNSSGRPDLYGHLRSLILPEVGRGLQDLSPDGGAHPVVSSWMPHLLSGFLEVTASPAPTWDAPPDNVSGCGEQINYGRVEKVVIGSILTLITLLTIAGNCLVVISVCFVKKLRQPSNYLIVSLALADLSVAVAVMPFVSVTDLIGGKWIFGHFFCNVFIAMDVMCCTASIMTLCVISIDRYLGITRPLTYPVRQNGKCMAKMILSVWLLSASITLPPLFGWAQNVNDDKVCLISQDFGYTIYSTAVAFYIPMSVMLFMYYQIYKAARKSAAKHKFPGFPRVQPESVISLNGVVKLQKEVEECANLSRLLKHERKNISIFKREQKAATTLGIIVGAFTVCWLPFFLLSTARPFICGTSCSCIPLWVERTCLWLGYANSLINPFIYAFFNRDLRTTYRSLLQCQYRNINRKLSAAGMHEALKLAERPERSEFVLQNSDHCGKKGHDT
Experiment: Displacement of [3H]LSD from rat recombinant 5HT7 receptor expressed in HEK293 cells
pKi: −log10 of the molar value.
True means recorded pKi is 7 or above; False means it is below 7.

COc1ccccc1N1CCN(CCc2cccc(OCCOCCOc3cccc(CCN4CCN(c5ccccc5OC)CC4)c3)c2)CC1 : True
COc1ccccc1N1CCN(CCc2cccc(OC(=O)COCC(=O)Oc3cccc(CCN4CCN(c5ccccc5OC)CC4)c3)c2)CC1 : True
COc1ccccc1N1CCN(CCc2cccc(OCCCCCCCCCCOc3cccc(CCN4CCN(c5ccccc5OC)CC4)c3)c2)CC1 : False
COc1ccccc1N1CCN(CCc2cccc(OCCOc3cccc(CCN4CCN(c5ccccc5OC)CC4)c3)c2)CC1 : True
COc1ccccc1N1CCN(CCc2cccc(OCCCCCCOc3cccc(CCN4CCN(c5ccccc5OC)CC4)c3)c2)CC1 : True
COc1ccccc1N1CCN(CCc2cccc(OCCCCCCCCOc3cccc(CCN4CCN(c5ccccc5OC)CC4)c3)c2)CC1 : False

Is pKi at least 7? Consider COc1ccccc1N1CCN(CCc2cccc(OCCCOc3cccc(CCN4CCN(c5ccccc5OC)CC4)c3)c2)CC1
True

Ok, now COc1ccccc1N1CCN(CCc2cccc(OCCCCOc3cccc(CCN4CCN(c5ccccc5OC)CC4)c3)c2)CC1
True

* * *

Biological target: 5-hydroxytryptamine receptor 1A (Homo sapiens)
Test: Displacement of [3H]-8-OH-DPAT from human recombinant 5HT1A receptor expressed in HEK293 cells
property: Ki (nM)
Numbers only, in nM.

COc1ccccc1N1CCN(CCc2cccc(OCCCCOc3cccc(CCN4CCN(c5ccccc5OC)CC4)c3)c2)CC1 : 0.9
COc1ccccc1N1CCN(CCc2cccc(OCCCCCCCCOc3cccc(CCN4CCN(c5ccccc5OC)CC4)c3)c2)CC1 : 4.8
COc1ccccc1N1CCN(CCc2cccc(OCCOCCOc3cccc(CCN4CCN(c5ccccc5OC)CC4)c3)c2)CC1 : 0.62

Give one value of Ki per listed compound.
1. COc1ccccc1N1CCN(CCc2cccc(OCCOc3cccc(CCN4CCN(c5ccccc5OC)CC4)c3)c2)CC1
2. COc1ccccc1N1CCN(CCc2cccc(OCCCOc3cccc(CCN4CCN(c5ccccc5OC)CC4)c3)c2)CC1
3. COc1ccccc1N1CCN(CCc2cccc(OCCCCCOc3cccc(CCN4CCN(c5ccccc5OC)CC4)c3)c2)CC1
4. COc1ccccc1N1CCN(CCc2cccc(OC(=O)COCC(=O)Oc3cccc(CCN4CCN(c5ccccc5OC)CC4)c3)c2)CC1

1: 2.2; 2: 5.6; 3: 1.74; 4: 2.74

* * *

Biological target: UniProt P08908
Sequence (P08908 whole entry, looked up): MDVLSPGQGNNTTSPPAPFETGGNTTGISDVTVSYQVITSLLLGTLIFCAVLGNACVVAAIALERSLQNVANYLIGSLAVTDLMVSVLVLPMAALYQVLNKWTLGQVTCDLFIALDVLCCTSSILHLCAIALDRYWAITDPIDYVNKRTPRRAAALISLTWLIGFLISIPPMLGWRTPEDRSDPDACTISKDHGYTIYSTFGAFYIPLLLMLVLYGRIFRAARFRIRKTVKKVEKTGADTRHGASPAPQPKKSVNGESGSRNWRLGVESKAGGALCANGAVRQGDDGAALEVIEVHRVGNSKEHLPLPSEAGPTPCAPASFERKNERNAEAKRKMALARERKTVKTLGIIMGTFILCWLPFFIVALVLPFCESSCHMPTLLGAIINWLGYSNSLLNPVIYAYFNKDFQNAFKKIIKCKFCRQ
Assay: Displacement of [3H]-8-OH-DPAT from human recombinant 5HT1A receptor expressed in HEK293 cells
property: pKi
One number for each entry, as −log10 of the molar value.

COc1ccccc1N1CCN(CCc2cccc(OCCCCCCCCCCCCOc3cccc(CCN4CCN(c5ccccc5OC)CC4)c3)c2)CC1 : 6.60
COc1ccccc1N1CCN(CCc2cccc(OCCCCCCCCCCOc3cccc(CCN4CCN(c5ccccc5OC)CC4)c3)c2)CC1 : 7.55

Please look at the following molecule next.
Quick check: pKi of COc1ccccc1N1CCN(CCc2cccc(OCCCCCCOc3cccc(CCN4CCN(c5ccccc5OC)CC4)c3)c2)CC1 ?
8.80
